Target: BRN1/DNA (Mus musculus, UniProt P31361)
Construct: using nuclear extracts from RA treated P19 cells; endogenous in cells
Sequence (P31361 1-497): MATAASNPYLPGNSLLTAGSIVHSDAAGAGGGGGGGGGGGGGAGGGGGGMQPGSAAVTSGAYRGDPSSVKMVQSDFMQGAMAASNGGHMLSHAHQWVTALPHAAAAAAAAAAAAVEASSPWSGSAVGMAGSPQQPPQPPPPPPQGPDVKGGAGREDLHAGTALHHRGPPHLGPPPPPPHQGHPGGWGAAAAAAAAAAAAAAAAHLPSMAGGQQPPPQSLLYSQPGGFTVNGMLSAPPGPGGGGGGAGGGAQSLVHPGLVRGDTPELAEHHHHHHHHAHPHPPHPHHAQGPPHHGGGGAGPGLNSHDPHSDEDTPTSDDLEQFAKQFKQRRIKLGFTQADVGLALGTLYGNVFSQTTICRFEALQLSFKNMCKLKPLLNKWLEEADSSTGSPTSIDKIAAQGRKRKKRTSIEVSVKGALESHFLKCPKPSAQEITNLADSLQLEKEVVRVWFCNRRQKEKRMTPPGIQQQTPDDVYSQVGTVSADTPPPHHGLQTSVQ
Experiment: EMSA, BRN1/DNA complex (nuclear extracts from RA treated P19 cells)
Conditions: EMSA with BRN1 recognition element probe
# IC50 per entry
In your response, the unit should come after the numeric value.

Here are 3 compounds together with their reported answers.
Chemical structure	Tested target	Quantity kind	Measured value
O=C(COc1ccc(C(=O)Nc2cccc(F)c2)c2ccccc12)NCC(F)(F)F	BRN1/DNA (Mus musculus, UniProt P31361)	IC50	162 µM
O=C(COc1ccc(C(=O)Nc2cccc(F)c2)c2ccccc12)Nc1ccc(O)cc1	BRN1/DNA (Mus musculus, UniProt P31361)	IC50	124 µM
O=C(COc1ccc(C(=O)Nc2cccc(F)c2)c2ccccc12)Nc1cccc(O)c1	BRN1/DNA (Mus musculus, UniProt P31361)	IC50	142 µM

Turning now to a further compound:
Query: Would you kindly share the measured IC50 for `O=C(COc1ccc(C(=O)Nc2cccc(F)c2)c2ccccc12)NC1CC1` ?
Response: 810 µM

Every entry's value here was drawn from patent US7662750B2.
